Biological target: T1, Trop-2 on Trop-2 expressing tumor cells (human, UniProt P09758 27-323)
T1 construct: Endogenous Trop-2 of human tumour cell lines; also called Trop-2 positive tumor cells; A431 (Trop-2+++)
T1 sequence: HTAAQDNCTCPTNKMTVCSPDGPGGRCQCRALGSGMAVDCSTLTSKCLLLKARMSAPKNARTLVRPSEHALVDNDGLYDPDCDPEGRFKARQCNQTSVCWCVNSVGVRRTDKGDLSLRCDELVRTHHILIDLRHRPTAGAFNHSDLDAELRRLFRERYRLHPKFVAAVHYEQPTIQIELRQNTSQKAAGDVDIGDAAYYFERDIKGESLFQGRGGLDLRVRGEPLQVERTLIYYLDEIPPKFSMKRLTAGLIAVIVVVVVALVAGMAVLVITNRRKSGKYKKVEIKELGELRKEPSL
Assay: flow cytometry, A431 cells (Trop-2+++), 0.5 ug antibody per 200,000 cells
test readout: MFI
Kindly provide the number alone.

Example binders with recorded MFI:
>>> quantitative_readout("h7E6_N antibody (human IgG1) (antibody, V domains shown, Human IgG1) VH: QVQLQESGPGLVKPSETLSLTCTVSGGSISSYGVHWIRQPPGKGLEWIGVIWTGGSTDYNSALMSRVTISVDTSKNQFSLKLSSVTAADTAVYYCARDGDYDRYTMDYWGQGTLVTVSS VL: DIVMTQSPDSLAVSLGERATINCRASKSVSTSNYSYMHWYQQKPGQPPKLLIYLASNLESGVPDRFSGSGSGTDFTLTISSLQAEDVAVYYCQHSRELPYTFGQGTKLEIK")
149000
>>> quantitative_readout("h7E6_SVGL antibody (human IgG1) (antibody, V domains shown, Human IgG1) VH: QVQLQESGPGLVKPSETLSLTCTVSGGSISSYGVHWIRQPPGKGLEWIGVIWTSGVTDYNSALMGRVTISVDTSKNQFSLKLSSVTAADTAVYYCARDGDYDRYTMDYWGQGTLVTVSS VL: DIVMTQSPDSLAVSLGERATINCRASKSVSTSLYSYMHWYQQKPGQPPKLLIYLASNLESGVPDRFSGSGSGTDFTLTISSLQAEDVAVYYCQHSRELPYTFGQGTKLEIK")
107000

Query binder follows.
Entry under review: h7E6_SVG antibody (human IgG1) (antibody, V domains shown) VH: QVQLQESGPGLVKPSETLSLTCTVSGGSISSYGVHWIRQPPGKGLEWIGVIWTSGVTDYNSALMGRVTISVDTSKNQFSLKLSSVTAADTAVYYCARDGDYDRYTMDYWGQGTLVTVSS VL: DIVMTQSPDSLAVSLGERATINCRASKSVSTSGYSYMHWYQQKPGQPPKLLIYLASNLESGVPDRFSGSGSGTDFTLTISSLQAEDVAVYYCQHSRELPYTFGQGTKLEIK . Reported MFI?
121000
